Kindly state percent response FL1 for each of the entries shown.
Protocol description: fluorescent artefacts in FAP flow readout – cell-based, FAP fluorogen, flow cytometry, cherry pick 1, artefact control for beta2AR agonist internalization project, confirmation (AID 588765);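 further: low percent response here flags compound autofluorescence meaning a false positive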
Cond: Am2.2 cells, fluorescence counterscreen, at 10 µM, stronger effect = lower value
Out of some 1,100 compounds screened, fewer than 10 were called active. A selection follows.
Give bare numbers, in %.

For orientation, consider the following solved cases.
1. OC(CNCc1ccc(Cl)c(Cl)c1)c1ccccc1 (centres undefined) = 106
2. CCN1CCC2(CC1)N=C(c1ccc(F)cc1)C(=S)N2C(=O)c1ccc(C)cc1 = 98.4
3. COc1ccc(-n2nc3c(N4CCC(C(=O)NCc5ccccc5)CC4)nnc(C)c3c2C)cc1 = 130
4. Cc1ccc(Cl)cc1NC(=O)CN1CCN(S(=O)(=O)N2CCOCC2)CC1 = 99.8
5. CSc1ccc(CNC(=O)c2ccc(NC(=O)C3=CSCCO3)cc2)cc1 = 16.2
6. O=S(=O)(Nc1ccc2[nH]ncc2c1)c1ccccc1Cl = 86
7. Cc1ccc(Sc2cc(N3CCOCC3)nc(-c3ccccc3)n2)cc1 = 29.8
8. COc1ccc2c(c1OC)C(=O)OC2Nc1nc(-c2ccccc2)cs1 (centres undefined) = 104
9. C=CCNC(=S)N/N=C/c1ccc(C)s1 = 100
10. O=C(NCCCn1ccnc1)C1CCCN(S(=O)(=O)c2cc(Cl)ccc2Cl)C1 (centres undefined) = 8.86

Provide percent response FL1 values for the following items, in order.
1. CC(=O)c1cccc(NC(=O)COc2ccc(S(=O)(=O)N3CCOCC3)cc2)c1
2. CCOc1ccccc1N1C(=O)CC(Sc2nccc(C)n2)C1=O (centres undefined)
3. CCCOc1ccc(C(=O)C(CCC(CNCC)C(=O)c2ccc(OCCC)cc2)CNCC)cc1 (centres undefined)
4. CC(=O)Nc1ccc(Nc2c3ccccc3nc3ccccc23)cc1
5. CC(=O)Nc1ccc(CN2CCC(Oc3ccc(C(=O)N4CCCC4)cc3)CC2)cc1
6. CC(=O)c1ccc(NC(=O)c2ccc3c(Cl)c4c(nc3c2)CCCC4)cc1
7. CCOc1ccccc1NC(=O)COc1ccc(S(=O)(=O)N2CCCC2)cc1

[112, 100, 82.8, 68.8, 109, 52.7, 110]

Provide percent response FL1 values for the following items, in order.
1. COc1ccc(-c2ccnc(SCC(=O)N3CCOCC3)n2)cc1
2. O=C(Nc1ccc2c(c1)OCCO2)C(c1ccc(F)cc1)N1CCCCC1 (centres undefined)
3. Oc1ccc(N=Cc2sc3ccccc3c2Cl)cc1
4. COc1cc(C#Cc2ccc3cc(CCCO)oc(=O)c3c2)cc(OC)c1
5. CSc1ccc(CCNC(=O)C2CCN(c3nnc(-n4cccc4)s3)CC2)cc1
6. COc1ccc(S(=O)(=O)N2CCCC(C(=O)Nc3ccc(NC(=O)c4ccccn4)cc3)C2)cc1 (centres undefined)
7. CCCN(CCc1ccccc1)C1CCc2c(O)cccc2C1 (centres undefined)

103
114
99.5
92.6
45.7
45.3
103

###

Protocol description: fluorescent artefacts in FAP flow readout – cell-based, FAP fluorogen, flow cytometry, cherry pick 1, artefact control for beta2AR agonist internalization project, confirmation (AID 588765);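 further: low percent response here flags compound autofluorescence meaning a false positive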
Cond: Am2.2 cells, fluorescence counterscreen, at 10 µM, stronger effect = lower value; measured here: FL8 channel fluorescence
Fewer than 10 of roughly 1,100 compounds were called active. A selection follows.
Measurement kind: percent response FL8 (%)
Give bare numbers, in %.

1) CSc1ccc(CNC(=O)c2ccc(NC(=O)C3=CSCCO3)cc2)cc1 = 99.4
2) COc1cc(C#Cc2ccc3cc(CCCO)oc(=O)c3c2)cc(OC)c1 = 102

From here, focus on the item given below.
Given C=CCNC(=S)N/N=C/c1ccc(C)s1 , state its recorded percent response FL8.
93.3
